System: ACHN renal
run-description: NCI tumour cell line growth inhibition, 384-well format
Can you tell me TGI for the items I'm about to list?

// query Notebook: pull reported TGI for ACHN renal, entry Cc1cc2c(cc1C)NC1=C(N2)OC(c2c3ccccc3cc3ccccc23)C1=O (centres undefined)
// result 13600 nM

// query So what TGI did `COc1cccc2c1C(=N)c1c(O)c3c(c(O)c1C2=O)C[C@@](O)(C(C)=O)C[C@@H]3O[C@H]1C[C@H](N)[C@H](O)[C@H](C)O1` get with ACHN renal?
// result 567 nM

// query Query TGI on ACHN renal for `O=C(O)c1ccc(CN2CCC(CN[C@@H]3C[C@H]3c3ccccc3)CC2)cc1`
// result > 100000 nM

// query Identify the measured TGI of `CN(C)C/C=C/C(=O)Nc1ccc(C(=O)N[C@@]2(C)CCC[C@@H](Nc3ncc(Cl)c(-c4c[nH]c5ccccc45)n3)C2)nc1` for ACHN renal.
// result 88.6 nM
